Here, molecules appear alongside IC50 reported for Human Factor XIIa (Homo sapiens) in the literature.
Response field label: string, one of rule met (IC50 strictly below 0.03 µM) or rule not met.

Take a look at these entries with their results.
molecule | measuredTarget | categoryLabel
CCOc1ccc(C[C@@H](NC(=O)c2cccc(C)c2)C(=O)N[C@@H](Cc2cccnc2)C(=O)NCc2ccc(CN)cc2)cc1 | Human Factor XIIa (Homo sapiens) | rule not met
C[C@@H]1N=C(N2CCN(C(=O)[C@@H](CCCCNS(C)(=O)=O)NC3CCCCC3)[C@H](C(=O)NCc3cccs3)C2)O[C@H]1c1cccc(C#N)c1 | Human Factor XIIa (Homo sapiens) | rule met
Cc1cc2c(C(=O)n3nc(N)c4c3CCC(OCc3ccccc3)C4)cccc2[nH]1 (stereo not drawn) | Human Factor XIIa (Homo sapiens) | rule not met
Cc1csc(C)c1C(=O)n1nc2c(c1N)CCCC2 (single isomer, unassigned) | Human Factor XIIa (Homo sapiens) | rule not met
CC1(C)N=C(N2CCN(C(=O)[C@@H](CC3CCCCC3)NC3CCCCC3)[C@H](C(=O)NCc3cccs3)C2)OC1c1ccccc1 (stereo partly drawn) | Human Factor XIIa (Homo sapiens) | rule met
Nc1nn(C(=O)C2CCNc3c(Cl)cccc32)c2c1CCNC2 (stereo not drawn) | Human Factor XIIa (Homo sapiens) | rule not met
Cc1cc2c(C(=O)n3nc(N)c4c3CCC(F)(F)C4)cccc2[nH]1 | Human Factor XIIa (Homo sapiens) | rule not met
CC(C)N[C@H](CCCCN1CCCCC1)C(=O)N1CCN(C2=NC(C)(C)C(c3ccccc3)O2)C[C@H]1C(=O)NCc1cc2cnccc2s1 (stereo partly drawn) | Human Factor XIIa (Homo sapiens) | rule met

Prompt line: Hello, is IC50 of the following molecule strictly smaller than 0.03 µM? CCN1CCc2c(N)nn(C(=O)C3CCNc4ccccc43)c2C1 (stereo not drawn)
Response line: rule not met
